Provenance of the data: patent US12378186B2

- EXPERIMENTAL SYSTEM: hMeprin β (Homo sapiens)
- Sequence (Q16820 62-701): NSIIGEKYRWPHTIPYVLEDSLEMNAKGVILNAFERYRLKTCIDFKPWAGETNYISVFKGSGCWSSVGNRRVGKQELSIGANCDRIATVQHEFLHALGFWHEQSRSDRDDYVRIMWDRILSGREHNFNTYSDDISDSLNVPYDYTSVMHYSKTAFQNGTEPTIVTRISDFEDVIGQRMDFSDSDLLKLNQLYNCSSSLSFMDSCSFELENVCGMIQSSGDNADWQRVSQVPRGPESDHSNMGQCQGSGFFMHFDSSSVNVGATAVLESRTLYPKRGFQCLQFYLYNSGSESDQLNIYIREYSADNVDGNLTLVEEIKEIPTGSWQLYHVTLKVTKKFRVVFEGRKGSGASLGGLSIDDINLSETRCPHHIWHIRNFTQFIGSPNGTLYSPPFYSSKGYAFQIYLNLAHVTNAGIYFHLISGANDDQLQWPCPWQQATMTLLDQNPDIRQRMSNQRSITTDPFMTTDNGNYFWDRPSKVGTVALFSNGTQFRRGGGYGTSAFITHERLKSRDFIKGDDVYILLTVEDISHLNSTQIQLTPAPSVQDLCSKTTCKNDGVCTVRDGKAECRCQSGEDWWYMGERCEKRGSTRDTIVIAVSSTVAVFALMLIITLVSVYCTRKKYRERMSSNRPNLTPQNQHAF
Items are presented alongside their recorded Ki.
Could you give the number and then its unit, please?

Item "Cc1ccc(CN(CC(=O)NO)Cc2cccc(C(=O)O)c2)cc1" ; assay system hMeprin β (Homo sapiens); Ki reported as 170 nM

Recorded Ki for "O=C(CN(Cc1ccc(F)c(O)c1F)Cc1ccc(F)c(O)c1F)NO" on hMeprin β (Homo sapiens) was 12 nM

// returns Ki for "O=C(CN(Cc1ccc(C(=O)O)cc1)Cc1cccc(C(=O)O)c1)NO" with hMeprin β (Homo sapiens); value = 101 nM

###

- EXPERIMENTAL SYSTEM: hMeprin α (Homo sapiens)
- Sequence (Q16819 66-746): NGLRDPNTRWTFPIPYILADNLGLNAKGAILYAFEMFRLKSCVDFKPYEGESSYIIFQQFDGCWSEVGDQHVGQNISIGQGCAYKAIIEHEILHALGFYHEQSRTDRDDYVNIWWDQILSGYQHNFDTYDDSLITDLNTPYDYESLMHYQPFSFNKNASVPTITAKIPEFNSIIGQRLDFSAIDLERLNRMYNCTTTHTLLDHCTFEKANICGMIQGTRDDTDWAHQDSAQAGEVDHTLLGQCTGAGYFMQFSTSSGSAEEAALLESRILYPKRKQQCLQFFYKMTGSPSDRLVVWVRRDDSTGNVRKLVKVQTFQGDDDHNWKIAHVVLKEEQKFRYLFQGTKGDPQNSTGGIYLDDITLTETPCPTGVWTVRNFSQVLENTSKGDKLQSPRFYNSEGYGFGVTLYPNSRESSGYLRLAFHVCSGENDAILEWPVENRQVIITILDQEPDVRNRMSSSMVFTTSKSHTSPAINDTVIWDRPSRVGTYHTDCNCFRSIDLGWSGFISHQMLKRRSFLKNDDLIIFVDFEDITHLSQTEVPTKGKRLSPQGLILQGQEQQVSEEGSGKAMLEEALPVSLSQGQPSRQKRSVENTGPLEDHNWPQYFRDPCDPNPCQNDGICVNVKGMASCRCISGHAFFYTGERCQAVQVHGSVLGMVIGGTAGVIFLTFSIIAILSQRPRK
- EXPERIMENTAL DETAILS: biochemical
- Type: biochemical
- EXPERIMENTAL SETUP: average Ki; 4 substrate concentrations (5-40 μM), 30° C., 40 mM HEPES pH 7.4; read-out: Meprin Alpha Ki
ASSAY READOUT: pKi
On this scale, pKi is minus log10 of a concentration expressed in M (mol/L).

pKi measured on "O=C(CN(Cc1ccc(F)c(O)c1F)Cc1ccc(F)c(O)c1F)NO" = 6.72

Query "O=C(CN(Cc1ccc(Cl)cc1F)Cc1ccc(Cl)cc1F)NO" yields pKi of 6.08

The value of pKi measured for the compound "O=C(CN(Cc1ccc(F)c(O)c1)Cc1ccc(F)c(O)c1)NO" turned out to be 6.51

// sample "Cc1ccc(CN(CC(=O)NO)Cc2cccc(C(=O)O)c2)cc1" , its pKi was 5.70

Consider "O=C(CN(Cc1cccc(O)c1F)Cc1cccc(O)c1F)NO" . Its measured pKi is 6.47

###

- EXPERIMENTAL SYSTEM: hMeprin β (Homo sapiens)
- EXPERIMENTAL DETAILS: Enzymatic assay, cleavage of internally quenched peptide substrate, hMeprin β
- Format: biochemical
- Description: A typical assay of 250 μl total volume measured in black 96 well plates consisted of 100 μl buffer, 50 μl enzyme at a final concentration of 5e-8 M to 5e-9 M, 50 μl substrate (0.15 to 80 μM, in buffer, 0.5% DMSO) and 50 μl inhibitor solution (in buffer, 1% DMSO). […] Enzymatic activity of ADAMs was measured in 384 well plates with 60 μl total assay volume consisting of 20 μl inhibitor, 20 μl buffer, 10 μl enzyme and 10 μl substrate. […]
ASSAY READOUT: pIC50
The value called pIC50 is obtained by taking minus log10 of the concentration in mol/L.

COc1c(F)ccc(CN(CCC(=O)NO)Cc2ccc(F)c(OC)c2F)c1F	4.73

// sample "COc1ccc(CN(CC(=O)NO)Cc2ccccc2C(=O)O)cc1" , its pIC50 was 4.64

Quick note, pIC50 for "COc1ccc(CN(CC(=O)NO)Cc2ccc(C)cc2)cc1" landed at 4.22

Measured pIC50, "O=C(CCN(Cc1ccc2c(c1)OCCO2)Cc1ccc2c(c1)OCCO2)NO" : 5.12

// sample "CCOC(=O)c1cccc(CN(CC(=O)NO)Cc2cccc(C(=O)O)c2)c1" , its pIC50 was 6.08

// pIC50 value for O=C(O)c1cccc(CN2CCCC2C(=O)NO)c1 (stereo in doubt) [Example 13] : 4.39

###

- EXPERIMENTAL SYSTEM: hMeprin α (Homo sapiens, UniProt Q16819)
- EXPERIMENTAL DETAILS: biochemical
- Assay type: biochemical
- EXPERIMENTAL SETUP: average IC50; 10 μM substrate, 30° C., 40 mM HEPES pH 7.4; read-out: Meprin Alpha IC50
Simple rule here: IC50 less than 3 µM is Fulfilled, otherwise Not fulfilled.

Example cases with answers are listed next.
O=C(CN(Cc1ccc(Cl)cc1)Cc1cccc(C(=O)O)c1)NO [Example 20]	Fulfilled
N#Cc1ccc(CN(CC(=O)NO)Cc2ccc(C#N)cc2)cc1 [Example 55]	Not fulfilled
O=C(CCN(Cc1ccc2c(c1)OCCO2)Cc1ccc2c(c1)OCCO2)NO [Example 69]	Fulfilled
O=C(O)c1cccc(CN[C@H](Cc2ccccc2)C(=O)NO)c1 [Example 35]	Fulfilled
O=C(CN(Cc1ccc(C(=O)O)cc1)Cc1cccc(C(=O)O)c1)NO [Example 7]	Not fulfilled
COc1ccc(CN(CC(=O)NO)Cc2ccc(F)c(O)c2F)cc1 [Example 53]	Fulfilled
COC(=O)c1cccc(CN(CC(=O)NO)Cc2cccc(C(=O)O)c2)c1 [Example 43]	Not fulfilled
COc1ccc(CN(CC(=O)NO)Cc2cccc(OC)c2)cc1 [Example 27]	Not fulfilled

# TODO verify IC50 < 3 µM strictly for this compound: N#Cc1ccc(CN(CC(=O)NO)Cc2cccc(C(=O)O)c2)cc1 [Example 19]
Not fulfilled

Bench note: check whether COc1ccc(CN(CCCC(=O)NO)Cc2cccc(C(=O)O)c2)cc1 [Example 38] shows IC50 below 3 µM
Fulfilled

Below 3 µM on IC50? Entry COc1ccc(CN(CCC(=O)NO)Cc2cccc(C(=O)O)c2)cc1 [Example 31]
Fulfilled

Is IC50 strictly under 3 µM for the entry O=C(O)c1cccc(CN[C@H](C(=O)NO)c2ccccc2)c1 [Example 37] ?
Not fulfilled

Determine whether this compound shows IC50 lower than 3 µM (ties excluded): CC(C)[C@@H](NCc1cccc(C(=O)O)c1)C(=O)NO [Example 34]
Not fulfilled

Report whether reported IC50 is lower than 3 µM (strictly) for COc1ccc(CN(CC(=O)NO)Cc2ccc(F)cc2)cc1 [Example 25]
Not fulfilled

Is the reported IC50 for O=C(CN(Cc1ccc(C(=O)O)cc1)Cc1ccc(C(=O)O)cc1)NO [Example 1] strictly below 3 µM?
Not fulfilled

# strict comparison: is reported IC50 < 3 µM? input = O=C(O)c1cccc(CN[C@@H](C(=O)NO)c2ccccc2)c1 [Example 36]
Not fulfilled

Input O=C(CN(Cc1cccc(C(=O)O)c1)Cc1cccc(C(=O)O)c1)NO [Example 2] ; condition: IC50 strictly below 3 µM. Does it hold?
Not fulfilled

###

- EXPERIMENTAL SYSTEM: hMeprin α (Homo sapiens)
- EXPERIMENTAL DETAILS: biochemical
- Type: biochemical
- EXPERIMENTAL SETUP: average Ki; 4 substrate concentrations (5-40 μM), 30° C., 40 mM HEPES pH 7.4; read-out: Meprin Alpha Ki
ASSAY READOUT: pKi
pKi here is simply -log10 of the concentration when that concentration is written in mol/L.

O=C(CCN(Cc1ccc(Cl)cc1F)Cc1ccc(Cl)cc1F)NO	6.77
O=C(CN(Cc1ccc2c(c1)OCO2)Cc1ccc2c(c1)OCO2)NO	6.56
O=C(CCN(Cc1ccc2c(c1)OCO2)Cc1ccc2c(c1)OCO2)NO	7.28

Next item in the queue.
Per the record, "COc1c(Cl)ccc(CN(CC(=O)NO)Cc2ccc(Cl)c(OC)c2F)c1F" has pKi of 6.00

###

- EXPERIMENTAL SYSTEM: hMeprin α (Homo sapiens)
- Sequence (Q16819 66-746): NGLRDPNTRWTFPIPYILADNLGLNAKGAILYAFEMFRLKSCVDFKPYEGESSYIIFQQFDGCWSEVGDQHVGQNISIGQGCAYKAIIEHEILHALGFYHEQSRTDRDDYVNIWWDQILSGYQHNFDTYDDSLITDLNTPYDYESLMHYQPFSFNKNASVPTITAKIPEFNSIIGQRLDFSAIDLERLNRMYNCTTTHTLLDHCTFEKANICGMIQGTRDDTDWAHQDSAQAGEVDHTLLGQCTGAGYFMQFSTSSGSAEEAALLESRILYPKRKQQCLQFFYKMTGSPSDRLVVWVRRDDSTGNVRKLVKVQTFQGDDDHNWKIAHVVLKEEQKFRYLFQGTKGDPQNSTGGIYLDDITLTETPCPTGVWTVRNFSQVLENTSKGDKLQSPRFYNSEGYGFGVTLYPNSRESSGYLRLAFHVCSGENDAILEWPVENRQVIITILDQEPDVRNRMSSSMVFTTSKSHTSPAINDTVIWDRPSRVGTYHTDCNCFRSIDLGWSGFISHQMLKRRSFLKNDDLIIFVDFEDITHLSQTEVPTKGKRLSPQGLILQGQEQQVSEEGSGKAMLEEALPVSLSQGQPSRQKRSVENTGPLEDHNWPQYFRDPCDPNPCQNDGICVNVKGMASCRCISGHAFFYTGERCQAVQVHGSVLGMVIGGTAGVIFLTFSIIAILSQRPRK
- EXPERIMENTAL DETAILS: biochemical
- Assay type: biochemical
- EXPERIMENTAL SETUP: average IC50; 10 μM substrate, 30° C., 40 mM HEPES pH 7.4; read-out: Meprin Alpha IC50
Rule: IC50 below 2 µM gives 1 (yes). Equal to or above 2 µM gives 0 (no).

Solved entries:
C[C@H](NCc1cccc(C(=O)O)c1)C(=O)NO	0 (no)
O=C(CCN(Cc1ccc2c(c1)OCO2)Cc1ccc2c(c1)OCO2)NO	1 (yes)
O=C(O)C[C@H](NCc1cccc(C(=O)O)c1)C(=O)NO	0 (no)
COc1c(F)ccc(CN(CC(=O)NO)Cc2ccc(F)c(OC)c2F)c1F	0 (no)
O=C(CN(Cc1ccc2c(c1)OCO2)Cc1ccc2c(c1)OCO2)NO	1 (yes)
COc1ccc(CN(CC(=O)NO)Cc2ccc3c(c2)OCO3)cc1	1 (yes)
C[C@@H](NCc1cccc(C(=O)O)c1)C(=O)NO	0 (no)
CC(C)(NCc1cccc(C(=O)O)c1)C(=O)NO	0 (no)

Please indicate whether the reported IC50 of "COc1ccc(CN(CC(=O)NO)Cc2ccc(C)cc2)cc1" is strictly below 2 µM.
0 (no)

Would you kindly verify if IC50 of "COc1cc(CN(CCC(=O)NO)Cc2cc(OC)c(OC)c(OC)c2)cc(OC)c1OC" is strictly less than 2 µM?
0 (no)

Hello, is IC50 of the following compound strictly smaller than 2 µM? "CCOC(=O)c1cccc(CN(CC(=O)NO)Cc2cccc(C(=O)OCC)c2)c1"
0 (no)

For this compound, is IC50 lower than 2 µM? "O=C(CN(Cc1ccc(Cl)cc1F)Cc1ccc(Cl)cc1F)NO"
0 (no)

Field: below-cutoff. Rule: recorded IC50 strictly less than 2 µM. Subject: "N#Cc1cccc(CN(CC(=O)NO)Cc2cccc(C#N)c2)c1"
1 (yes)

Dear colleague, could you confirm whether IC50 of "COC(=O)c1cccc(CN(CC(=O)NO)Cc2cccc(C(N)=O)c2)c1" falls below 2 µM? Thanks.
0 (no)
